- Tested on: human PBMC T cells
- Assay: cells
- Type: cell-based
- Measurement parameters: Homo sapiens, 72 h, read-out: T-cells (IC50)
Answer each item with its documented IC50.

Q: Look at this compound and give its reported IC50. `CC[C@H](CC#N)OC(=O)N[C@@H](C)c1cccc(NC(=O)Nc2ccc(C#N)c(OC)c2)c1`
Result: < 0.1 µM

Q: Please give the measured IC50 for this compound: COc1cc(NC(=O)Nc2cccc(CNC(=O)OC(CCC#N)C(F)(F)F)c2)ccc1-c1cnco1 (stereo not shown)
Result: 0.1 to 1 µM

Q: For COc1cc(NC(=O)Nc2cccc(CNC(=O)OC(CC#N)C(F)(F)F)c2)ccc1-c1cnco1 (stereo not shown) , what is its reported IC50?
Result: 0.1 to 1 µM

Q: # input compound: `CCOc1cc(NC(=O)Nc2cccc([C@H](C)NC(=O)O[C@H](CC)CC#N)c2)ccc1C#N` ; wanted: its IC50
Result: > 1 µM

Q: # query: IC50 of entry CCN(CC)C[C@@H](OC(=O)NC(C)c1cccc(NC(=O)Nc2ccc(-c3cnco3)c(OC)c2)c1)c1ccccc1 (stereo partly shown)
Result: 0.1 to 1 µM

Q: Fill blank: measured IC50 of the compound `COc1cc(NC(=O)Nc2cccc(CNC(=O)OCCN(C)CCC#N)c2)ccc1-c1cnco1` is ____.
Result: 0.1 to 1 µM

Q: Which IC50 value belongs to `COc1cc(NC(=O)Nc2cccc(CNC(=O)O[C@H](CO)CC#N)c2)ccc1-c1cnco1` ?
Result: 0.1 to 1 µM

====

- Tested on: human PBMC T cells
- Assay: cells
- Assay type: cell-based
- Measurement parameters: Homo sapiens, 72 h, read-out: T-cells (IC50)
pIC50: −log10 of the molar value.
Readout name: pIC50

Q: Fill in the blank: the reported pIC50 of CCN(CC1CC1)CC(OC(=O)NCc1cccc(NC(=O)Nc2ccc(-c3cnco3)c(OC)c2)c1)c1ccccc1 (stereo not shown) [Compound 134] is ____.
Result: 6.00 to 7.00

Q: // returns reported pIC50 for input COc1cc(NC(=O)Nc2cccc(CNC(=O)OC(CC#N)CC#N)c2)ccc1-c1cnco1 [Compound 13]
Result: 6.00 to 7.00

Q: Recorded pIC50 for CC[C@@H](CCC#N)OC(=O)NCc1cccc(NC(=O)Nc2ccc(-c3cnco3)c(OC)c2)c1 [Compound 101] , please?
Result: > 7.00

Q: I would be grateful if you could share the reported pIC50 for COc1cc(NC(=O)Nc2cccc(CNC(=O)O[C@H](CN3CCCCC3)c3ccccc3)c2)ccc1-c1cnco1 [Compound 99] .
Result: 6.00 to 7.00

Q: Given COc1cc(NC(=O)Nc2cccc(CNC(=O)OC(CCN(CC3CC3)C(C)C)c3ccccc3)c2)ccc1-c1cnco1 (stereo not shown) [Compound 131] , state its recorded pIC50.
Result: 6.00 to 7.00

Q: Consider the molecule CCN(CC)CCC(OC(=O)NCc1cccc(NC(=O)Nc2ccc(-c3cnco3)c(OC)c2)c1)C(F)(F)F (stereo not shown) [Compound 37] and give its measured pIC50.
Result: 6.00 to 7.00

Q: Which pIC50 reading was recorded for the molecule CCCN(CCC(OC(=O)NCc1cccc(NC(=O)Nc2ccc(-c3cnco3)c(OC)c2)c1)c1ccccc1)CC(C)C (stereo not shown) [Compound 120] ?
Result: < 6.00

====

- Tgt: IMPDH human type II (Homo sapiens)
- Assay: biochemical
- Measurement parameters: read-out: Ki
pKi: −log10 of the molar value.
Would you kindly list pKi for each of these compounds?

Q: Return reported pKi; argument: COCC(C)OC(=O)NCc1cccc(NC(=O)Nc2ccc(-c3cnco3)c(OC)c2)c1 (stereo not drawn)
Result: > 8.00

Q: Quick one: pKi of `CC[C@@H](CO)OC(=O)N[C@@H](C)c1cccc(NC(=O)Nc2ccc(C#N)c(OC)c2)c1` ?
Result: < 7.30

Q: Reported pKi, compound `CC[C@@H](CCC#N)OC(=O)NCc1cccc(NC(=O)Nc2ccc(-c3cnco3)c(OC)c2)c1` : ____
Result: > 8.00

Q: What measured pKi goes with `CC[C@@H](CO)OC(=O)NCc1cccc(NC(=O)Nc2ccc(-c3cnco3)c(OC)c2)c1` ?
Result: > 8.00

Q: Find the recorded pKi belonging to `CCCN(C[C@@H](OC(=O)NCc1cccc(NC(=O)Nc2ccc(-c3cnco3)c(OC)c2)c1)c1ccccc1)C(C)C` and report it.
Result: < 7.30

Q: State the recorded pKi for this entry: `COc1cc(NC(=O)Nc2cccc(CNC(=O)OC[C@@H](CC#N)N(C)C)c2)ccc1-c1cnco1`
Result: > 8.00

Q: # input compound: COc1cc(NC(=O)Nc2cccc(CNC(=O)OC(CC#N)C(C)C)c2)ccc1-c1cnco1 (stereo not drawn) ; wanted: its pKi
Result: > 8.00

Q: Requested field: pKi. Item: COc1cc(NC(=O)Nc2cccc(CNC(=O)OC3COCC3OCC(=O)OC(C)(C)C)c2)ccc1-c1cnco1 (stereo not drawn) [Compound 72]
Result: > 8.00

Q: Which measured pKi value corresponds to COc1cc(NC(=O)Nc2cccc(CNC(=O)OC(CCN(C)C)c3ccccc3)c2)ccc1-c1cnco1 (stereo not drawn) ?
Result: > 8.00

Q: // lookup pKi for CCC(CCCO)OC(=O)NCc1cccc(NC(=O)Nc2ccc(-c3cnco3)c(OC)c2)c1 (stereo not drawn)
Result: > 8.00

Q: Name the reported pKi value associated with the compound `COc1cc(NC(=O)Nc2cccc([C@@H](C)NC(=O)OCCC#N)c2)ccc1C#N`
Result: < 7.30

Q: Item CCC(CCO)OC(=O)NCc1cccc(NC(=O)Nc2ccc(-c3cnco3)c(OC)c2)c1 (stereo not drawn) has what recorded pKi?
Result: > 8.00

Q: Give its pKi value. Item: CCC(CN)OC(=O)NCc1cccc(NC(=O)Nc2ccc(-c3cnco3)c(OC)c2)c1 (stereo not drawn)
Result: > 8.00

Q: Consider the compound shown here: COc1cc(NC(=O)Nc2cccc(CNC(=O)OC(COC(C)C)CN(CCC#N)CC(C)C)c2)ccc1-c1cnco1 (stereo not drawn) What is its recorded pKi?
Result: > 8.00

Q: I'd like to know its pKi. The compound in question is `COc1cc(NC(=O)Nc2cccc(CNC(=O)OC[C@H](N)CC#N)c2)ccc1-c1cnco1`
Result: > 8.00

Q: Entry under review: COc1cc(NC(=O)Nc2cccc(CNC(=O)OC3COCC3OCC#N)c2)ccc1-c1cnco1 (stereo not drawn) [Compound 76] . Reported pKi?
Result: > 8.00

Q: Using the record for CCC(CNC(=O)OC(C)(C)C)OC(=O)NCc1cccc(NC(=O)Nc2ccc(-c3cnco3)c(OC)c2)c1 (stereo not drawn) , report its pKi.
Result: < 7.30

Q: # lookup: pKi of COc1cc(NC(=O)Nc2cccc(CNC(=O)OC(CCN(CC(C)C)C(C)C)c3ccccc3)c2)ccc1-c1cnco1 (stereo not drawn)
Result: < 7.30

Q: Sample `CC[C@H](COC(C)=O)OC(=O)NCc1cccc(NC(=O)Nc2ccc(-c3cnco3)c(OC)c2)c1` — what was its pKi?
Result: > 8.00

Q: Item under review: CCCN(C)CCC(OC(=O)NCc1cccc(NC(=O)Nc2ccc(-c3cnco3)c(OC)c2)c1)c1ccccc1 (stereo not drawn) . Reported pKi?
Result: < 7.30

Q: What measured pKi goes with `COc1cc(NC(=O)Nc2cccc([C@H](C)NC(=O)OCCC#N)c2)ccc1C#N` ?
Result: > 8.00

Q: Quick one: pKi of CCCCC(CC#N)OC(=O)NCc1cccc(NC(=O)Nc2ccc(-c3cnco3)c(OC)c2)c1 (stereo not drawn) ?
Result: > 8.00

Q: Suppose we examine the compound CCC(NC(=O)O[C@H](CC)CC#N)c1cccc(NC(=O)Nc2ccc(C#N)c(OC)c2)c1 (stereo partly drawn) ; what pKi value has been reported?
Result: < 7.30

Q: So what does the record say about pKi for `COc1cc(NC(=O)Nc2cccc(CNC(=O)O[C@H](C)CCC#N)c2)ccc1-c1cnco1` ?
Result: > 8.00

Q: Bench note: what pKi did `COc1cc(NC(=O)Nc2cccc(CNC(=O)O[C@H](CN3CCCCC3)c3ccccc3)c2)ccc1-c1cnco1` show?
Result: 7.30 to 8.00

Q: What does the data say about its pKi? Entry: CCC(CCC#N)COC(=O)NCc1cccc(NC(=O)Nc2ccc(-c3cnco3)c(OC)c2)c1 (stereo not drawn)
Result: > 8.00

Q: Item under review: CCCN(CC(OC(=O)NCc1cccc(NC(=O)Nc2ccc(-c3cnco3)c(OC)c2)c1)c1ccccc1)C1CC1 (stereo not drawn) . Reported pKi?
Result: < 7.30

Q: For COc1cc(NC(=O)Nc2cccc(CNC(=O)OC3COCC3OCC(=O)O)c2)ccc1-c1cnco1 (stereo not drawn) [Compound 73] , what is its reported pKi?
Result: > 8.00

Q: Param item = CCN(CC)C[C@@H](OC(=O)NC(C)c1cccc(NC(=O)Nc2ccc(-c3cnco3)c(OC)c2)c1)c1ccccc1 (stereo partly drawn) [Compound 166] ; retrieve measured pKi.
Result: < 7.30

Q: Which pKi reading was recorded for the compound `CC[C@H](COC(=O)CNC(=O)OC(C)(C)C)OC(=O)NCc1cccc(NC(=O)Nc2ccc(-c3cnco3)c(OC)c2)c1` ?
Result: 7.30 to 8.00

Source of measurements: patent US7087642B2
